Tested on: PCSK9 gene
Test: PCSK9 gRNA/SpCas9 editing in primary human hepatocytes (Tables 2, 4)
Type: cell-based
Details: 2500 ng/RNA/mL; SpCas9 mRNA MS002 1:1 by weight
Description: In set of experiments, PCSK9 gRNAs were co-transfected with an equivalent amount (1:1 ratio by weight) of in vitro transcribed commercially available SpCas9 mRNA MS002 purchased from TriLink Biotechnologies into primary human hepatocytes at 2500, 500, or 100 ng/RNA/mL and processed as described in detailed methods. Extracted genomic DNA was analyzed for gene editing at the target site with next-generation sequencing of PCR amplicons generated around the target sites. […]
m = 2'-O-methyl; r = 2'-OH (RNA)
Task for the reader: assign each of the following molecules its reported Human Primary Hepatocyte Editing % 2500.
Give bare numbers, in %.

>>> quantitative_readout("GA239: PCSK9 gRNA; protospacer CCGCCTGCCAGCGCCTGGCG (SEQ ID NO: 232) (nucleic acid, sugars from the 5' end m3 r94 m3, linkages s3 o93 s3 (s phosphorothioate, o phosphodiester), T or U not given here) guide: CCGCCUGCCAGCGCCUGGCGGUUUUAGAGCUAGAAAUAGCAAGUUAAAAUAAGGCUAGUCCGUUAUCAACUUGAAAAAGUGGCACCGAGUCGGUGCUUUU")
3.49

Would you mind listing Human Primary Hepatocyte Editing % 2500 for each of the following molecules?
1. GA196: PCSK9 gRNA; protospacer GAGTGACCACCGGGAAATCG (SEQ ID NO: 190) (nucleic acid, sugars from the 5' end m3 r94 m3, linkages s3 o93 s3 (s phosphorothioate, o phosphodiester), T or U not given here) guide: GAGUGACCACCGGGAAAUCGGUUUUAGAGCUAGAAAUAGCAAGUUAAAAUAAGGCUAGUCCGUUAUCAACUUGAAAAAGUGGCACCGAGUCGGUGCUUUU
2. GA176: PCSK9 gRNA; protospacer AGCACCACCACGTAGGTGCC (SEQ ID NO: 170) (nucleic acid, sugars from the 5' end m3 r94 m3, linkages s3 o93 s3 (s phosphorothioate, o phosphodiester), T or U not given here) guide: AGCACCACCACGUAGGUGCCGUUUUAGAGCUAGAAAUAGCAAGUUAAAAUAAGGCUAGUCCGUUAUCAACUUGAAAAAGUGGCACCGAGUCGGUGCUUUU

*A*
[17.19, 4.98]
